Test system: HCI-024 (organoid from a breast cancer xenograft)
Assay: CTG-3D luminescence at 96 h relative to day-0 seeding control (ratio to day 0); higher = more growth / less cytotoxicity; PDxO 3D drug screen (set 2), 96 h, CTG-3D normalised to day-0 seeding control.
Details: 10 µM; days in culture: 202
Reported CTG-3D luminescence at 96 h by item:
quantityName: CTG-3D luminescence at 96 h

>>> reportedvalue("CC(=O)c1c(C)c2cnc(Nc3ccc(N4CCNCC4)cn3)nc2n(C2CCCC2)c1=O")
1.1
>>> reportedvalue("CC(C)n1nc(-c2ccc3oc(N)nc3c2)c2c(N)ncnc21")
0.634
>>> reportedvalue("CO[C@H]1C[C@@H]2CC[C@@H](C)[C@@](O)(O2)C(=O)C(=O)N2CCCC[C@H]2C(=O)O[C@H]([C@H](C)C[C@@H]2CC[C@@H](OCCO)[C@H](OC)C2)CC(=O)[C@H](C)/C=C(\\C)[C@@H](O)[C@@H](OC)C(=O)[C@H](C)C[C@H](C)/C=C/C=C/C=C/1C")
1.74
>>> reportedvalue("CS(=O)(=O)CCNCc1ccc(-c2ccc3ncnc(Nc4ccc(OCc5cccc(F)c5)c(Cl)c4)c3c2)o1")
0.832

Provenance of the data: the supplement of paper PMC8882468
